activation listing for selected compounds.
experiment: nonspecific BLA reporter activation – CHO NFAT-bla cells, FRET readout, counter-screen for GALR2 agonist project, confirmation (AID 865); details: beta-lactamase FRET activation, at 5.6 µM, active compounds read high;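 further: 0% = DMSO with PBS wells and 100% = thapsigargin positive control wells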
Some of the results follow.
quantity-name: activation (%)

{"compound": "CCCOc1ccc(C(=O)C(CCC(CNCC)C(=O)c2ccc(OCCC)cc2)CNCC)cc1 (stereo not drawn)", "quantity-name": "activation", "meas-value": 0.75}
{"compound": "Cc1csc(NC(=O)c2ccc(-c3ccc(Cl)cc3Cl)o2)n1", "quantity-name": "activation", "meas-value": 0.5}
{"compound": "O=C(NC(=S)Nc1ccc(NC(=O)c2cccs2)cc1)c1ccc([N+](=O)[O-])cc1", "quantity-name": "activation", "meas-value": -1.18}

====

experiment: nonspecific BLA reporter activation – CHO NFAT-bla cells, FRET readout, counter-screen for GALR2 agonist project, confirmation (AID 865); details: beta-lactamase FRET activation, at 5.6 µM, active compounds read high;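 further: 0% = DMSO with PBS wells and 100% = thapsigargin positive control wells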
The other results are listed elsewhere or left out.

{"compound": "CC1(C)CC(=O)C=C(NCCN2CCNCC2)C1", "activation / %": -2.3}
{"compound": "COc1ccc(C(=O)CN2C(=O)NC(C)(c3ccc(C)cc3)C2=O)cc1OC (stereo unspecified)", "activation / %": -1.81}
{"compound": "Cc1ccc(CCC(=O)Nc2ncc(Cc3cc(Cl)ccc3Cl)s2)o1", "activation / %": 13.5}
{"compound": "COc1ccc(Nc2oc(-c3ccccc3Cl)nc2C#N)cc1", "activation / %": -0.84}
{"compound": "COCCN(CCOC)S(=O)(=O)c1ccc(C(=O)Nc2nc3c(s2)CCc2ccccc2-3)cc1", "activation / %": 2.54}
{"compound": "O=[N+]([O-])c1ccccc1SNc1ccccn1", "activation / %": -1.98}
{"compound": "CCN(C(=O)CSc1ncn[nH]1)c1cccc2ccccc12", "activation / %": -1.97}
{"compound": "Cc1ccc(Cc2c(C)nc3nc(SCC(=O)NCCN4CCOCC4)nn3c2C)cc1", "activation / %": -0.81}
{"compound": "COc1ccccc1N1N=C(c2cccs2)CC1c1ccccc1 (stereo unspecified)", "activation / %": 6.25}
{"compound": "C=CCN(CC=C)S(=O)(=O)c1ccc(C(=O)Nc2nc3c(s2)CCc2ccccc2-3)cc1", "activation / %": 1.61}
{"compound": "OC(COc1cccc2ccccc12)CN1CCN(c2ccccn2)CC1 (stereo unspecified)", "activation / %": 0.34}

Hello, the source for this data is PubChem BioAssay AID865, in case you need it.
